Molecular target: Gag-Pol polyprotein [588-1127,Y768C]/[588-1147,Y768C] (Human immunodeficiency virus 1, UniProt P04585, Y768C)
Construct: 588-1127; 588-1147
Assay: HIV-1 RT Assay
Details: pH 7.8; 37 °C
pIC50 for assorted compounds
For clarity, pIC50 is expressed as the negative log10 of concentration in mol/L.

Field: example entries. Status: answers known.
>>> datavalue("Cc1ccc(S(=O)(=O)c2c(C(N)=O)[nH]c3ccc(Cl)cc23)cc1")
6.96
>>> datavalue("Cc1cc(C)cc(S(=O)(=O)c2c(C(N)=O)[nH]c3ccc(Cl)cc23)c1")
6.89

Inquiry: Dear colleague, I am looking for the recorded pIC50 of the following compound: `NC(=O)c1[nH]c2ccc(Cl)cc2c1S(=O)(=O)c1ccccc1`
Reply text: 6.80

---

Target: Gag-Pol polyprotein [588-1027,K690N]/[588-1147,K690N] (Human immunodeficiency virus 1, UniProt P04585, K690N)
Construct: 588-1027; 588-1147
Assay: HIV-1 RT Assay
Conditions: pH 7.8; 37 °C
propertyName: IC50

Inquiry: Dear colleague, I am looking for the recorded IC50 of the following compound: `Cc1ccc(S(=O)(=O)c2c(C(N)=O)[nH]c3ccc(Cl)cc23)cc1`
Reply text: > 5 µM

Inquiry: Then what about the compound `Cc1cc(C)cc(S(=O)(=O)c2c(C(N)=O)[nH]c3ccc(Cl)cc23)c1` ?
Reply text: > 5 µM

Inquiry: Then what about the compound `NC(=O)c1[nH]c2ccc(Cl)cc2c1S(=O)(=O)c1ccccc1` ?
Reply text: > 5 µM
